I'd appreciate it if you could supply pIC50 values for the items below.
Target: PDGFRβ (Homo sapiens, UniProt P09619)
Sequence (P09619 33-1106, species assumed): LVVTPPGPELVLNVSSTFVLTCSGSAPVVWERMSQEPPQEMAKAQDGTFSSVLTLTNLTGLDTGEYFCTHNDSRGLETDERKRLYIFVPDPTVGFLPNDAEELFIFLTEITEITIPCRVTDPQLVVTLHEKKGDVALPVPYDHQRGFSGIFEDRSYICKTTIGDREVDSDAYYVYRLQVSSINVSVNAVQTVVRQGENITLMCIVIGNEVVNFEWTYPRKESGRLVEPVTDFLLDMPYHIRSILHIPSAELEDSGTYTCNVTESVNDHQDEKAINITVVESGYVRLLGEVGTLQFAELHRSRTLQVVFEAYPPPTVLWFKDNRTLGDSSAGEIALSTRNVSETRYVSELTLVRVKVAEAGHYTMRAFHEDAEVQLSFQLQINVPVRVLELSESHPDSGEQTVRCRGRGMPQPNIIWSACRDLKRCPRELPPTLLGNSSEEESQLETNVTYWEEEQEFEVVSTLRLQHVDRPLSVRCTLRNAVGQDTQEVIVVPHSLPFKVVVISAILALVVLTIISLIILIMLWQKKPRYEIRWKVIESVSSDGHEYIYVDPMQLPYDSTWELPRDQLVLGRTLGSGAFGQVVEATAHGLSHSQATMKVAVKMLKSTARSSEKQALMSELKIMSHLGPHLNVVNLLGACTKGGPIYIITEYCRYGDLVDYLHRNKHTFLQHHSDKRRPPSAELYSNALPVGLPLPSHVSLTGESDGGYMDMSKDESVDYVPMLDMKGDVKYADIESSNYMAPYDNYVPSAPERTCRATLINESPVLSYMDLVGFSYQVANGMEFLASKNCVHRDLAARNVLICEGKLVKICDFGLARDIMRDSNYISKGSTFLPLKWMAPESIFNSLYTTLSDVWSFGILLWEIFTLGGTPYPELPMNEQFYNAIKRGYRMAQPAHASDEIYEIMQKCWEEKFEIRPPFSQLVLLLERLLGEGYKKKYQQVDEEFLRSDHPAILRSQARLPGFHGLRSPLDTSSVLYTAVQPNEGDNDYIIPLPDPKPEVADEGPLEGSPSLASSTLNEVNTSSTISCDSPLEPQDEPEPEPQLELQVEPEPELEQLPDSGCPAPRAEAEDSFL
Assay: PDGFRβ kinase inhibition, whole-cell assay
Conditions: whole-cell assay; read-out: kinase inhibition IC50 [whole-cell assays] PDGFRβ
Lab note: report pIC50 as minus log10 of the concentration in molar units, number only.

IN: Fill blank: measured pIC50 of the molecule `COc1ccc2c(c1)CCCN2c1nc(C)nc2c(Cc3ccccc3)c[nH]c12` is ____.
OUT: 7.04

IN: Fill blank: measured pIC50 of the molecule `COc1ccc2c(c1)CCCN2c1nc(C)nc2c(Cc3ccccc3)cn(C)c12` is ____.
OUT: 7.52

IN: Fill blank: measured pIC50 of the molecule `COc1ccc(Nc2nc(C)nc3c(Cc4ccccc4)cn(C)c23)cc1` is ____.
OUT: 8.14

IN: Fill blank: measured pIC50 of the molecule `COc1ccc(N(C)c2nc(C)nc3c(Cc4ccccc4)cn(C)c23)cc1` is ____.
OUT: 7.99
